Where do the numbers come from? From ChEMBL document CHEMBL4513216.

The entries below are paired with their reported cytotoxicity at 10 µM.
# protocol.notes: Toxicity liver stage against HepG2, at 10uM
# Format: cell-based
# Design: test concentration 10 uM, cell line HepG2-A16-CD81EGFP
# condition.notes: human, HepG2-A16-CD81EGFP cells; read-out: INHIBITION
Expressed in %, but write only the number.

Solved entries:
Cn1ncc2c(N3CCN(C(=O)c4ccsc4)CC3)ncnc21; -9.27
O=C(c1cn2cc(Cl)ccc2n1)N1CCC(CCn2cccn2)CC1; -10.2
CCCc1ncc(C(=O)c2ccc(OC)cc2)n1C; 22.3

Request the reported cytotoxicity at 10 µM associated with CCc1ccc(O)c(C(=O)N2CCN(CC(=O)N3CCCCC3)CC2)c1
9.06

Quick one: cytotoxicity at 10 µM for CCn1c(CN2CCOC(Cn3cncn3)C2)nc2cc(F)ccc21 (configuration not stated) ?
-4.84

Look at this molecule and give its reported cytotoxicity at 10 µM. CC(C)c1nc(CN(C)C2CCN(CCS(C)(=O)=O)C2)no1 (configuration not stated)
-13.4

Given the entry c1ccc(CN2CCOCC3(CCN(C4CCOCC4)C3)C2)cc1 (configuration not stated) , report its measured cytotoxicity at 10 µM.
3.01

----------
# protocol.notes: Toxicity liver stage against HepG2, at 10uM
# Type: cell-based
# Set-up: test concentration 10 uM, cell line HepG2-A16-CD81EGFP
# condition.notes: human, HepG2-A16-CD81EGFP cells; read-out: INHIBITION
observed.property: cytotoxicity at 10 µM (%)
Reply numerically in %, unit not repeated.

Here's what some known entries look like.
CCOCCn1c(=O)[nH]c2cc(C(=O)N(C)CCc3cn[nH]c3)ccc21; -21.7
O=C(Cc1ccc2c(c1)CCO2)N1CCCCC1Cn1cccn1 (stereo unspecified); -12.8

Look up cytotoxicity at 10 µM: Cc1noc(C)c1CNCc1ccccc1N(C)C1CCN(C)CC1
4.69

----------
# protocol.notes: Toxicity liver stage against HepG2, at 10uM
# Format: cell-based
# Design: test concentration 10 uM, cell line HepG2-A16-CD81EGFP
# condition.notes: human, HepG2-A16-CD81EGFP cells; read-out: INHIBITION
Let's look at some compounds and their measured cytotoxicity at 10 µM.
Give the value in % but do not write % after it.

Reference set, count: 3
CCCN1CCCC2(CCN(C(=O)CCCn3cncn3)C2)C1=O (centres undefined); -1.84
CCCc1nc(C)cc(N2CCC3(CCC(=O)N(CC4CC4)C3)CC2)n1; 14.9
CC(C)CNC(=O)c1cc2c(s1)CCN2Cc1cccnc1; -6.16

Fill in the blank: the reported cytotoxicity at 10 µM of COCC(C)Nc1ccc(-c2nc(Cc3ccc(F)cc3)no2)cn1 (centres undefined) is ____.
7.22

----------
# protocol.notes: Toxicity liver stage against HepG2, at 10uM
# Assay type: cell-based
# Design: test concentration 10 uM, cell line HepG2-A16-CD81EGFP
# condition.notes: human, HepG2-A16-CD81EGFP cells; read-out: INHIBITION
cytotoxicity at 10 µM overview

A selection of reference data follows.
COCCc1noc(CN2CCCCC2Cn2cccn2)n1 (centres undefined); -1.3%
CNC(=O)CCc1cc(C)nc(C2CCN(c3cnccn3)CC2)c1; 1.31%
CC(=O)c1ccc(C(=O)N2CCC(c3cc(O)nc(C)n3)CC2)s1; 1.3%

# evaluate next
cytotoxicity at 10 µM lookup needed for CCCc1nc(N(C)CCc2noc(C(C)C)n2)c2cnn(C)c2n1 , thanks.
3.86%

----------
# protocol.notes: Toxicity liver stage against HepG2, at 10uM
# Type: cell-based
# Set-up: test concentration 10 uM, cell line HepG2-A16-CD81EGFP
# condition.notes: human, HepG2-A16-CD81EGFP cells; read-out: INHIBITION
Recorded cytotoxicity at 10 µM values for a group of compounds are listed next.
// return numeric value only (unit: %, not printed)

FC(F)(F)CCc1ncnn1-c1ccc2c(c1)OCO2; -3.55
COc1ccccc1C(NCc1ccc(SC)cc1)c1nccn1C (stereo not given); -11.6
CN(C)CC1CN(C(=O)CCc2ccccc2)Cc2nccn2C1 (stereo not given); -121

Can you look up the measured cytotoxicity at 10 µM of CCN(CC)C1(Cc2cc(CC(C)C)on2)COC1 for me?
2.23

----------
# protocol.notes: Toxicity liver stage against HepG2, at 10uM
# Assay type: cell-based
# Set-up: test concentration 10 uM, cell line HepG2-A16-CD81EGFP
# condition.notes: human, HepG2-A16-CD81EGFP cells; read-out: INHIBITION
observed.property: cytotoxicity at 10 µM (%)
// note: answer is a bare numeric in %

O=S(=O)(Nc1cn[nH]c1)c1ccc(F)c(Br)c1; -11.5
CC(C)N1CCO[C@@H]2CN(C(=O)Cc3cccs3)CC[C@@H]2C1; -120
Cc1nn(C)cc1CN1C[C@H]2CC[C@@H](C1)N(Cc1c(C)noc1C)C2=O; 5.9

Kindly review the next compound as well.
Would you mind telling me what cytotoxicity at 10 µM value was observed for CC(C)OCCNC1(c2ccc(Cl)cc2)CCOCC1 ?
5.5

----------
// reported cytotoxicity at 10 µM per item
# protocol.notes: Toxicity liver stage against HepG2, at 10uM
# Format: cell-based
# Design: test concentration 10 uM, cell line HepG2-A16-CD81EGFP
# condition.notes: human, HepG2-A16-CD81EGFP cells; read-out: INHIBITION
// return numeric value only (unit: %, not printed)

COc1cc(F)ccc1NC(=O)NC(C)C(=O)NC(C)(C)C (stereo not given); -6.1

Find the recorded cytotoxicity at 10 µM belonging to CC(c1nc(C2CC2)no1)N(C)Cc1ccc(C#N)cc1 (stereo not given) and report it.
4.15

Look at this molecule and give its reported cytotoxicity at 10 µM. CCCc1nc(CN2CCN(Cc3noc(CCC)n3)CC2)no1
-0.914

Entry c1ccc(C2CCN(c3ncnc4c3CCNC4)CC2)cc1 has what cytotoxicity at 10 µM?
5.03

Returns the measured cytotoxicity at 10 µM for the input molecule. Input: Cc1n[nH]c(C)c1C(N)C(=O)NCCc1csc(C(C)C)n1 (stereo not given)
-8.64

----------
# protocol.notes: Toxicity liver stage against HepG2, at 10uM
# Assay type: cell-based
# Set-up: test concentration 10 uM, cell line HepG2-A16-CD81EGFP
# condition.notes: human, HepG2-A16-CD81EGFP cells; read-out: INHIBITION
observed.property: cytotoxicity at 10 µM (%)
A number alone suffices; assume %.

Observe how each entry below is paired with its result.
CC(CCO)Nc1cccc(C(F)(F)F)n1 (stereo not given); -2.8
COCCCN1CCC(C(=O)c2cc(F)ccc2F)CC1; -10.9
CCc1c(C(=O)N2CCC(CC(N)=O)CC2)cnn1C(C)(C)C; 2.2
COc1ccc(C(=O)NS(=O)(=O)c2cc(Cl)sc2Cl)cc1OC(F)F; -4.73

Request the reported cytotoxicity at 10 µM associated with CN(C(=O)NCCCNc1ccccn1)C1CCS(=O)(=O)C1 (stereo not given)
4.67

----------
# cytotoxicity at 10 µM per entry
# protocol.notes: Toxicity liver stage against HepG2, at 10uM
# Assay type: cell-based
# Set-up: test concentration 10 uM, cell line HepG2-A16-CD81EGFP
# condition.notes: human, HepG2-A16-CD81EGFP cells; read-out: INHIBITION
# number only, unit % dropped from output

Completed entries (count: 8):
COc1cccc(CNC(=O)Nc2ccc3[nH]nnc3c2)c1OC; 3.2
O=C(c1c(F)cc(Br)cc1F)N1CCc2cnccc21; -10.1
Cc1ccc(F)c(NC(=O)NCCCn2nc3ccccn3c2=O)c1; -13.3
CSCCC1c2nc[nH]c2CCN1Cc1cncn1C (centres undefined); 13.3
O=C(c1ccc[nH]1)N1CCCn2c(nnc2Cn2cccn2)C1; 8.06
COCCN1C[C@H]2[C@@H](C1)N(Cc1cnn(C)c1)CC[C@H]2OC; 8.47
CN(C)Cc1ccccc1CN(C)c1ncnc2[nH]ccc12; 8.11
O=C(CCc1cc2n(n1)CCNC2)NCCS(=O)(=O)N1CCCC1; 0.487

Param item = COc1ccc(COCC(O)CN(C)c2ccc(C)cc2C)cc1 (centres undefined) ; retrieve measured cytotoxicity at 10 µM.
1.6

# lookup: cytotoxicity at 10 µM of CC1CN(C(=O)CN(Cc2ccco2)C2CC2)CCO1 (centres undefined)
3.97

Could you share which cytotoxicity at 10 µM value was measured for CCCn1cc(CNCC(c2ccc(C)s2)N2CCOCC2)cn1 (centres undefined) ?
-0.248

Query: cytotoxicity at 10 µM; subject: Cc1ccn(-c2ccnc(N3CCSCC3)n2)n1
9.87

Using the record for O=C(CCc1ccc(C(F)(F)F)cc1)N1CCCS1(=O)=O , report its cytotoxicity at 10 µM.
4.37

Look up cytotoxicity at 10 µM: COC(=O)Cn1c(=O)[nH]c2cn(-c3ccccc3)c(=O)n21
21.6

Which cytotoxicity at 10 µM value is on record for Cn1cc(-c2csc(N3CCOCC3)n2)cn1 ?
0.469

Can you share its cytotoxicity at 10 µM? I mean this compound: CC(C)C(=O)NCC(=O)N(C)C1CCCN(C2Cc3ccccc3C2)C1 (centres undefined)
-7.79

Endpoint output: cytotoxicity at 10 µM of CN1CC2(CCN(Cc3cccc(C#N)c3)CC2)CC1=O . Value?
-0.145

For the compound shown here, Cc1ccc(N2CCCC(NCc3ccc(-n4ccnc4)cc3)C2)nn1 (centres undefined) , give the reported cytotoxicity at 10 µM.
-8.44

What value of cytotoxicity at 10 µM has been reported for the following compound? CC(O)c1cn(CC2CCN(C(=O)CN3CCCC3=O)CC2)nn1 (centres undefined)
2.31
